molecular target: PARK7 (Homo sapiens, UniProt Q99497); experiment: High-throughput screen of the crude compound library, PARK7 fluorescence polarization (FP) assay with FP reagent JYQ-107; format: biochemical; details: 1.25 µM, crude compound library; read-out: HTS FP assay %Inhibition (1.25 µM)
Sequence (Q99497 whole entry): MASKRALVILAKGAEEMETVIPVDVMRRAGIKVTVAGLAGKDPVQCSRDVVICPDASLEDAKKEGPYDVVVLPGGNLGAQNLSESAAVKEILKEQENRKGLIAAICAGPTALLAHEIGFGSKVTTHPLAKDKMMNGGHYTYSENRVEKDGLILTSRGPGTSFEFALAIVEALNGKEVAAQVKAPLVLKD
Returns rule met if the recorded inhibition at 1.25 µM is greater than or equal to 70%, and rule not met otherwise.

Some solved cases for reference:
Ask | Is reported inhibition at 1.25 µM greater than or equal to 70% here: N#CN1CC[C@@H](C(=O)Nc2nc3c(s2)CN(C(=O)c2cccc(N4CCOCC4)n2)CC3)C1 [compound 277]
Reply | rule not met

Ask | Entry N#CN1CC[C@@H](C(=O)Nc2nc3c(s2)CN(C(=O)c2cc(-c4ccco4)on2)CC3)C1 [Compound 139] : is its inhibition at 1.25 µM no less than 70%?
Reply | rule met

Ask | Could you verify whether the entry Cn1nc(-c2cccnc2)cc1C(=O)N1CCc2nc(NC(=O)[C@@H]3CCN(C#N)C3)sc2C1 [compound 184] shows inhibition at 1.25 µM of no less than 70%?
Reply | rule met

Ask | Does inhibition at 1.25 µM meet or surpass 70% for N#CN1CC[C@@H](C(=O)Nc2nc3c(s2)CN(C(=O)c2ccc(Cn4cc(Cl)c(C(F)(F)F)n4)o2)CC3)C1 [compound 289] ?
Reply | rule met

Ask | Given COc1ccc(CC(=O)N2CCc3nc(NC(=O)[C@@H]4CCN(C#N)C4)sc3C2)cc1S(=O)(=O)N1CCOCC1 [compound 257] , state whether its inhibition at 1.25 µM is at least 70%.
Reply | rule met

Others:
Ask | Exam item: decide whether the reported inhibition at 1.25 µM for N#CN1CC[C@@H](C(=O)Nc2nc3c(s2)CN(C(=O)C2COCCN2C(=O)OCc2ccccc2)CC3)C1 (some centres unmarked) [compound 181] is at least 70%.
Reply | rule met

Ask | Determine whether measured inhibition at 1.25 µM meets or exceeds 70% for N#CN1CC[C@@H](C(=O)Nc2nc3c(s2)CN(C(=O)c2cnc(-c4cccs4)s2)CC3)C1 [Compound 108]
Reply | rule met

Ask | inhibition at 1.25 µM >= 70% for Cc1ncsc1C(=O)N(C)c1ccccc1C(=O)N1CCc2nc(NC(=O)[C@@H]3CCN(C#N)C3)sc2C1 [compound 308] ?
Reply | rule not met

Ask | Has Cn1cc(-c2cc(C(=O)N3CCc4nc(NC(=O)[C@@H]5CCN(C#N)C5)sc4C3)n[nH]2)cn1 [Compound 337] a recorded inhibition at 1.25 µM greater than or equal to 70%?
Reply | rule met

Ask | Test whether the compound N#CN1CC[C@@H](C(=O)Nc2nc3c(s2)CN(C(=O)C2CCCN(S(=O)(=O)c4cccs4)C2)CC3)C1 (some centres unmarked) [compound 288] records inhibition at 1.25 µM of 70% or higher.
Reply | rule met

Ask | Check if inhibition at 1.25 µM >= 70% (inclusive). Item: N#CN1CC[C@@H](C(=O)Nc2nc3c(s2)CN(C(=O)c2ncoc2-c2cccs2)CC3)C1 [compound 10]
Reply | rule met
